Molecular target: human IL-21R expressed on cells (human, UniProt Q9HBE5 20-538)
Sequence (Q9HBE5 20-538 limits assumed): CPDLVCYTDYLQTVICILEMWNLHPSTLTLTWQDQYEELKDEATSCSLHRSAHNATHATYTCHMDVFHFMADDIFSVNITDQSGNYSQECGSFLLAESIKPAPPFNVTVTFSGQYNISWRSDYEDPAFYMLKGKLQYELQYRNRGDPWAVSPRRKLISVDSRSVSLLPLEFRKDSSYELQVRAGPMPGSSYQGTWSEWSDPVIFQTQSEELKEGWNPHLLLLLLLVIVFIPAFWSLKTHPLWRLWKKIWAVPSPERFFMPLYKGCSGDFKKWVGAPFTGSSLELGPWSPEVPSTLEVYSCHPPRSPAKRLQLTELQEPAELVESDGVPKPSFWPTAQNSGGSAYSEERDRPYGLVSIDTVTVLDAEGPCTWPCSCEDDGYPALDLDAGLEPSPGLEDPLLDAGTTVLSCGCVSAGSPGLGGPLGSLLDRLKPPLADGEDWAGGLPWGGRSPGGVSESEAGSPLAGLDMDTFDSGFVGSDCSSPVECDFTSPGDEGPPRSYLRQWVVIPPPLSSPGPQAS
Assay: cell-based or functional assay
Measured Quantity: Human IL-21R-BaF3 Neutralization IC50 (nM)
The figure you give is taken to be in nM; do not add the unit.

Requested field: Human IL-21R-BaF3 Neutralization IC50. Item: parental 18A5 antibody (antibody, V domains shown) VH: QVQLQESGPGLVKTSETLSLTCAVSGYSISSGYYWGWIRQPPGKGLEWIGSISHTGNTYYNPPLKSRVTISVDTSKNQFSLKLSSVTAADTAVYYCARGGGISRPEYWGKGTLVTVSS VL: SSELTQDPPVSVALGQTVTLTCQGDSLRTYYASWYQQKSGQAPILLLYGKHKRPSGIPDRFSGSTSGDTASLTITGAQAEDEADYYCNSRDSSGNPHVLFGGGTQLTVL
1.71
